- System: MS2 coat protein
- protocol_details: apparent KD of MS2 coat protein; designed switch direction (-1 OFF switch, 1 ON switch): -1; higher = weaker reporter binding
- condition_set: input ligand: FMN 200 uM
Criterion: apparent KD of MS2 coat protein meeting or surpassing 50 nM. Met: met. Not met: not met.

Asked: Determine whether measured apparent KD of MS2 coat protein meets or exceeds 50 nM for AUGUGCACGCUGCGGUCCUACAUGAGGAUCACCCAUGUGGUCUGGUGGCGUGGGUCACCGGACUUGGCUCGUCUUGC [salish99_S_TOV1_R5_058] (Eterna round: R97, puzzle: Sensor, turn-off variant 1)
Given back: not met

Asked: What about this sequence? UGACGCACGCGAGGAUAUUCCCACGAAACAAACAACGAAGGGUACAUGAGGAUCACCCAUGUGGCGAAGAAGGCGCGCGUCCGG [Eternabot solution 1] (Eterna round: R96, puzzle: Exclusion NG 2)
Given back: met

Asked: What about this sequence? UGAUCUAGCGGAGGAUAUACAUGAGGAUCACCCAUGUAGAUGAGUGUACCGUAGUGCACUAUUGUGUAGAAGGCCGCUAGAUCU [JL ENG2 3.63] (Eterna round: R96, puzzle: Exclusion NG 2)
Given back: met

Asked: What about this sequence? GCGGAGUCAGGAUAUUGAAUUUAACGUACCAAUAAGGUACGCGAGAAGGGACAUGAGGAUCACCCAUGUACCGC [Mat - Exclusion 4 - Eli Mod - D35] (Eterna round: R97, puzzle: Exclusion 4)
Given back: not met

Asked: What about this sequence? AAUGAUUGACGAGGAUAUUGUGGUAAAACACGACGAGAAGGCGUAUGUCACAUGAGGAUCACCCAUGUGAGCUUUGUGGAUAUA [Ex NG1 #71] (Eterna round: R96, puzzle: Exclusion NG 1)
Given back: not met

Asked: What about this sequence? CUAUAAGGUGUUAGGAUAUCGGCUCGAGGUACUAGCGAGAAGGAACAUGAGGAUCACCCAUGUGGUCAUGAUUU [Eternabot (L2) Solution 60] (Eterna round: R97, puzzle: Brourd's mod of Exclusion 4)
Given back: met

Asked: What about this sequence? AGCCUAGCAGGAUAUGCCCGGGAUAACAUGAGGAUCACCCAUGUGACUGAUUGAUGUCCUGCAGAAGGGCUAGGGA [JL-EX5-4.01 ViennaUCT mod] (Eterna round: R97, puzzle: Exclusion 5)
Given back: met

Asked: What about this sequence? CUUAAUUGUCACAUGGGUGACAUGAGGAUCACCCAUGUCACAAGCUUUUUGUUCGUCUUAUAAUUAACCCAUGUGAC [Stov1/12-B3] (Eterna round: R97, puzzle: Sensor, turn-off variant 1)
Given back: not met

Source of measurements: the supplement of paper PMC9170038
